measured.on: human EP1 receptor (Homo sapiens, UniProt P34995)
Sequence (P34995 whole entry): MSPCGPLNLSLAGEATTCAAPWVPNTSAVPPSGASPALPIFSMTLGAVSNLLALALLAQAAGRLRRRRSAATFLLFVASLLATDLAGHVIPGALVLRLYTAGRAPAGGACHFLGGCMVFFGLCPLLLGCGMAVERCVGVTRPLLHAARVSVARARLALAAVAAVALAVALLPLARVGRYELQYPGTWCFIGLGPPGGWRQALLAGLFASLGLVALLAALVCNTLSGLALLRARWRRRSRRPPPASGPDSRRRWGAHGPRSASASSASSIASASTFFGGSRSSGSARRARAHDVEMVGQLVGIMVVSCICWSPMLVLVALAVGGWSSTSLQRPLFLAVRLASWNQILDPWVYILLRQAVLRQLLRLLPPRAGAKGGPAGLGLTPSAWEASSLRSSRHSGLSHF
method.summary: Test 1: Human EP1 receptor radioligand binding assay ([3H]-PGE2, transfected HEK-293 cell membranes)
Set-up: expressed in transfected cells; host or cells: HEK-293 cell membranes
measurement.context: read-out: Results of Test 1 (Binding assay), % inh
# Lookup of reported inhibition at 10 µM keyed by entry

Answered cases to consult:
mol.smiles: CC(C)COc1ccc(Cl)cc1Cn1cc(CCO)c2c(C(=O)O)cccc21
inhibition at 10 µM: > 75%

mol.smiles: O=C(O)c1cccc2c1ccn2Cc1cc(F)ccc1OCc1ccc(F)c(Br)c1
inhibition at 10 µM: 45 to 75%

mol.smiles: O=C(O)c1cncc2c1CCCN2Cc1cc(Cl)ccc1OCc1ccc(F)cc1F
inhibition at 10 µM: > 75%

mol.smiles: O=C(O)c1cccc2c1c(CO)cn2Cc1cc(Cl)ccc1OCc1ccc(Cl)cc1F
inhibition at 10 µM: > 75%

mol.smiles: O=C(O)c1cccc2c1ccn2Cc1cc(F)ccc1OCc1cc(F)c(F)cc1F
inhibition at 10 µM: > 75%

mol.smiles: O=C(O)c1cccc2c1ccn2Cc1cc(Cl)ccc1OCc1cc(F)c(F)cc1F
inhibition at 10 µM: > 75%

mol.smiles: O=C(O)c1cncc2c1CCCN2Cc1cc(F)ccc1OCc1ccc(F)cc1F
inhibition at 10 µM: > 75%

mol.smiles: O=C(O)c1cccc2c1c(CO)cn2Cc1cc(F)ccc1OCc1ccc(Cl)cc1F
inhibition at 10 µM: > 75%

# input State measured inhibition at 10 µM of the molecule O=C(O)c1cccc2c1OCCN2Cc1cc(F)ccc1OCc1ccc(F)cc1Cl with human EP1 receptor (Homo sapiens, UniProt P34995).
# output > 75%

====

measured.on: human EP1 receptor (Homo sapiens, UniProt P34995)
method.summary: Test 1: Human EP1 receptor radioligand binding assay ([3H]-PGE2, transfected HEK-293 cell membranes)
Parameters: expressed in transfected cells; host or cells: HEK-293 cell membranes
measurement.context: read-out: Results of Test 1 (Binding assay), % inh
From the text: Test 1: Human EP1 Receptor Radioligand Binding Assay To investigate binding properties of EP1 receptor ligands to human EP1 receptor, transfected HEK-293 cell membranes and [3H]-PGE2 (Perkin Elmer) were used. […] Filters were dried and counted in a MicroBeta scintillation counter (Perkin-Elmer) using EcoScint liquid scintillation cocktail. […]
parameter: inhibition at 10 µM

Answered cases to consult:
mol.smiles: CC(C)(F)COc1ccc(Cl)cc1Cn1cc(CO)c2c(C(=O)O)cccc21
measured.on: human EP1 receptor (Homo sapiens, UniProt P34995)
inhibition at 10 µM: > 75%
--
mol.smiles: CC(C)(F)COc1ccc(Cl)cc1CN1CCCc2c(C(=O)O)cncc21
measured.on: human EP1 receptor (Homo sapiens, UniProt P34995)
inhibition at 10 µM: > 75%

Alright, here's another molecule for you.
# input Tell me its inhibition at 10 µM given O=C(O)c1cccc2c1ccn2Cc1cc(F)ccc1OCc1ccc(Br)cc1F as the entry.
# output > 75%

====

# Lookup of reported inhibition at 10 µM keyed by entry
measured.on: UniProt P34995
method.summary: Test 3: Measurement of IP1 responses by HTRF, HEK-293 cells stably expressing human EP1 receptors incubated o/n, PGE2 10 nM
Type: cell-based
Parameters: expressed in transfected cells
measurement.context: HEK293, read-out: Results of Test 3 (Functional assay), % inh

Answered cases to consult:
mol.smiles: O=C(O)c1cccc2c1OCC(=O)N2Cc1cc(Br)ccc1OCc1ccc(Cl)cc1F
observed: > 75%
--
mol.smiles: CC(C)(F)COc1ccc(Cl)cc1CN1CCc2c(C(=O)O)cccc21
observed: > 75%
--
mol.smiles: O=C(O)c1cccc2c1CCCN2Cc1cc(Cl)ccc1OC1CCC1
observed: > 75%
--
mol.smiles: O=C(O)c1ccnc2c1c(CO)cn2Cc1cc(Cl)ccc1OCc1ccc(F)cc1F
observed: > 75%

Alright, here's another compound for you.
# input Tell me its inhibition at 10 µM given O=C(O)c1cccc2c1cnn2Cc1cc(Cl)ccc1OC1CCC1 as the entry.
# output > 75%
